experiment: Third PK study: intravenous dose on day 1 or on day 6 after 5 days oral dosing; format: in vivo, female Swiss Albino mice; details: female, Swiss Albino, mouse, plasma, iv, 5 mg/kg, Group 1, Day 1: single 5 mg/kg i.v., female mice; read-out: CL
experimental_readout: clearance (mL/min/kg)
Numbers only, in mL/min/kg.

Query :: Quick one: clearance of `COc1cc(N2CCNCC2)ccc1Nc1ncc2c(n1)-n1ccc(C(=O)Nc3c(C)cccc3C)c1CC2` ?
Result :: 57.9

----------
experiment: Second PK study: daily oral dose for 5 days, two formulations; type: in vivo, female Swiss Albino mice; settings: female, Swiss Albino, mouse, plasma, po, 10 mg/kg, day 5, daily oral 10 mg/kg, Formulation 1, female mice
experimental_readout: AUC(0-inf) (ng·h/mL)
Answers are plain numbers, in ng·h/mL.

Query :: // query AUC(0-inf) value for entry `COc1cc(N2CCNCC2)ccc1Nc1ncc2c(n1)-n1ccc(C(=O)Nc3c(C)cccc3C)c1CC2`
Result :: 608
